ASSAYED_SYSTEM: T1, hTSLP-His (human, UniProt Q969D9 29-159, limits assumed)
T1 construct: bought; also called hTSLP (ACROBiosystems TSP-H52Hb); not shown: His tag
TEST_SUMMARY: competition ELISA, 7 nM TSLP-His pre-incubated with antibody; competitor Tezepelumab coated
OBSERVABLE: IC50 (nM)
Enter your answer as a number in nM; do not include the unit.

Use the examples below as a reference point.
BINDER	UNITS_SYMBOL	OBS_VALUE
BDG38.077 (antibody, V domains shown, IgG1) VH: QMQLVESGGGVVQPGRSLTLSCAASGFAFRTYGMHWVRQAPGKGLEWVGVIWYDGSATHYADSVKGRFTITRDNSKNTLNLQMNSLRAEDTAVYYCVRAPQWYLTAEAFDLWGQGTMVTVSS VL: SYVLTQPPSVSVAPGETATITCGGALIGSRLVHWYQQKPGQAPVLVIYDDSDRPSRIPERFSGSNIGNTATLTISDVEAGDEADYYCQVWDHSSNTYVFGGGTKLTVL	nM	8.47
BDG38.129 (antibody, V domains shown, IgG1) VH: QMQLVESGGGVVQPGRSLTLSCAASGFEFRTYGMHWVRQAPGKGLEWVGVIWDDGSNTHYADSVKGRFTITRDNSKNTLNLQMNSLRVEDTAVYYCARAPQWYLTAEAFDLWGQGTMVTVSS VL: SYILTQPPSVSVAPGQTATITCGGNLIGAKLVHWYQQKPGQAPVLVIYDDSDRPSRIPERFSGSNIGNTATLTISDVEEGDEADYYCQVWDYSSDHMVFGGGTKLTVL	nM	5.49
BDG38.079 (antibody, V domains shown) VH: QMQLVESGGGVVQPGRSLRLSCAASGFAFRTYGMHWVRQAPGKGLEWVAVIWYDGSNTHYADSVKGRFTITRDNSKNTLNLQMNSLRAEDTAVYYCVRAPQWYLTAEAFDLWGQGTMVTVSS VL: SYVLTQPPSVSVAPGETATITCGGNMIGGYLVHWYQQKPGQAPLLVIYDDVDRPDRIPERFSGSNSGNTATLTISRVEAGDEADYYCQVWDHDSNTMVFGGGTKLTVL	nM	3.63

# evaluate next
Name the reported IC50 value associated with the binder BDG38.137 (antibody, V domains shown, IgG1) VH: QMQLVESGGGVVQPGQSLRLSCAASGFEFRTYGMHWVRQAPGKGLEWVAVIWDDGSNTHYADSVKGRFTITRDNSKNTLNLQMNSLRAEDTAVYYCVRAPQWYLTAEAFDLWGQGTMVTVSS VL: SYVLTQPPSVSVAPGETATITCGGNLIGARLVHWYQQKPGQAPVLVIYDDSDRPSHIPERFSGSNSGNTATLTISRVEAGDEADYYCQVWDYSADTMVFGGGTKLTVL
10.9
